Data origin: ChEMBL document CHEMBL3627698

pIC50: −log10 of the molar value.
Assay system Poly [ADP-ribose] polymerase 1 (Homo sapiens); read-out recorded as pIC50.

Please review the entries below; each comes with its answer.
structure as smiles: COc1ccc2c(c1)C(=O)NCC2
test system: Poly [ADP-ribose] polymerase 1 (Homo sapiens)
Sequence (P09874 whole entry): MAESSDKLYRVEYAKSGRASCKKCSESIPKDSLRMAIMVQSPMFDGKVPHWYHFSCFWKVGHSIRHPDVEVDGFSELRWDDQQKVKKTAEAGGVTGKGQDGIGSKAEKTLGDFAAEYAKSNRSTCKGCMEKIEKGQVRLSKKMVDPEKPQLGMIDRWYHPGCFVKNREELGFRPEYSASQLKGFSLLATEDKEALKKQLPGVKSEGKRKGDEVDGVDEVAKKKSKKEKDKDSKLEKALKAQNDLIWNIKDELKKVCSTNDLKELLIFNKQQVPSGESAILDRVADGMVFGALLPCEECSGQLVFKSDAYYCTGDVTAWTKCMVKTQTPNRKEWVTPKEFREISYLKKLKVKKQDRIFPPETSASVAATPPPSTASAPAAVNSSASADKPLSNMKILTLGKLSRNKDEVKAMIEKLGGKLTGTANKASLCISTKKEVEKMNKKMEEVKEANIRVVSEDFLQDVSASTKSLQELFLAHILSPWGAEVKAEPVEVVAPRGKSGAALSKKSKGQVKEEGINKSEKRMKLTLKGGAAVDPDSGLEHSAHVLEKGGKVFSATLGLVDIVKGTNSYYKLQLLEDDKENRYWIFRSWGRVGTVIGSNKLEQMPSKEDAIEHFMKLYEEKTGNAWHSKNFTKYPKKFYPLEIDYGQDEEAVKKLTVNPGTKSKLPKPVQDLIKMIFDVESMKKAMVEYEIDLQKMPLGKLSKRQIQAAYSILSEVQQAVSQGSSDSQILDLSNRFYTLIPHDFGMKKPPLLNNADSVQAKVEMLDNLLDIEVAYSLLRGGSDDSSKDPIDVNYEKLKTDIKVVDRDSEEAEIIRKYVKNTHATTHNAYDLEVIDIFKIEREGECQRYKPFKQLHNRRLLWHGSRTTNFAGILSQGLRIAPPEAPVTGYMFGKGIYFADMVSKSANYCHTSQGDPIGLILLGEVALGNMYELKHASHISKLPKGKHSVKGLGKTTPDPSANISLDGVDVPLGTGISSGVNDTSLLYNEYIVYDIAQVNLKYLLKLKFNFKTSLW
pIC50: < 4.00

structure as smiles: O=C1NCCc2ccc(C(F)(F)F)cc21
test system: Poly [ADP-ribose] polymerase 1 (Homo sapiens)
pIC50: < 4.00

structure as smiles: O=C1NCCc2ccc(Cl)cc21
test system: Poly [ADP-ribose] polymerase 1 (Homo sapiens)
pIC50: 4.00

structure as smiles: O=C1NCCc2ccc(Br)cc21
test system: Poly [ADP-ribose] polymerase 1 (Homo sapiens)
pIC50: < 4.00

Suppose we examine the compound Cc1ccc2c(c1)C(=O)NCC2 ; what pIC50 value has been reported? < 4.00
